From: the supplement of paper PMC7877785

Exercise: for every item that follows, state its recorded self-splicing fitness (ln).
# experimental-protocol: self-splicing fitness, log relative to wild type (ln ratio); higher = more splicing; Tetrahymena group I intron in knt gene, E. coli kanamycin selection, DiMSum; sequences stand for … in CUCUCU…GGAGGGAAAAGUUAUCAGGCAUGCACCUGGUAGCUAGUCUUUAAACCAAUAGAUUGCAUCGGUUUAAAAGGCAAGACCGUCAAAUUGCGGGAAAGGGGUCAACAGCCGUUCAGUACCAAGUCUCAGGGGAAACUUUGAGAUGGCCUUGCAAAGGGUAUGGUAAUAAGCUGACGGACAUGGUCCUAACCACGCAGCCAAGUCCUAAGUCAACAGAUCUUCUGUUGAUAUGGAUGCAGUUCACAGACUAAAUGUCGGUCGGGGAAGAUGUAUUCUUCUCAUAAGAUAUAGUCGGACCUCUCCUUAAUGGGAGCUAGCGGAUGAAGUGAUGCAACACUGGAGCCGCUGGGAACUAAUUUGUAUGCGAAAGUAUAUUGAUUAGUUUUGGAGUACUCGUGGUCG;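 also: selection with 25 µg/mL kanamycin versus none on LB agar overnight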
# measurement-parameters: 37 °C

sequence-content | self-splicing fitness (ln)
GGGAAGCAAUAUUACGAAAC | -0.469
UUUCAGCAAUAUUACGGACA | -0.204
AUCAAGCAAUAUUACGGUGA | -0.818
CAUCAGCAAUAUUACGAUAG | -0.0749
GAGGAGCAAUAUUACGUCCG | -2.24

List self-splicing fitness (ln) for every entry below, keeping the order given.
1. CUGCAGCAAUAUUACGAUGU
2. UUGAAGCAAUAUUACGGUAC
3. AAGCAGCAAUAUUACGCUUA
4. CUCGAGCAAUAUUACGGCUA
5. UGCAAGCAAUAUUACGGUGC
6. AAAUAGCAAUAUUACGUCGA
7. UGUCAGCAAUAUUACGACAA
8. CAAAAGCAAUAUUACGAUAU

-2.71
-2.44
-1.24
-2.32
-2.49
-0.255
-0.118
-2.23

List the reported self-splicing fitness (ln) of each sequence below.
1. UUGCAGCAAUAUUACGUGUG
2. CCUCAGCAAUAUUACGCGAG
3. GCCGAGCAAUAUUACGACCA

[-1.68, -1.76, -2.31]

Field: self-splicing fitness (ln). Fill in for each record below.
1. CCAAAGCAAUAUUACGUCAA
2. UCGUAGCAAUAUUACGACUG
3. CACUAGCAAUAUUACGGAGG
4. UCGGAGCAAUAUUACGUGGU
5. GUGUAGCAAUAUUACGGGGG

1. -2.02
2. -2.28
3. -0.627
4. -1.72
5. -2.07

List the reported self-splicing fitness (ln) of each sequence below.
1. AAGAAGCAAUAUUACGGACG
2. AUUAAGCAAUAUUACGCACG
3. AGCCAGCAAUAUUACGAGCC
4. GUUUAGCAAUAUUACGUGUC
5. CCGUAGCAAUAUUACGUGCA
6. CGGGAGCAAUAUUACGGCUG
7. CAGUAGCAAUAUUACGUUGG

1: 0.0583; 2: -0.648; 3: -0.75; 4: -1.76; 5: -2.88; 6: -2.14; 7: -0.932
